Tested on: L1210 leukemia ip in BDF1 mice, survival T/C
assay-procedure: NCI In Vivo Anticancer Drug Screen. Data for tumor model L1210 Leukemia (intraperitoneal) in B6D2F1 (BDF1) mice
assay-conditions: endpoint: mean survival time; dose: 6.25 mg/kg/injection; schedule: Q01DX009 (ip); vehicle: saline with Tween-80; higher = longer survival
Toxic doses and inconclusive results are not listed.
property-label: T/C

INSERT INTO measurements (compound, property_label, assay_result) VALUES
  ('O=C(OCCCCOC(=O)c1cccc([N+](=O)[O-])c1)c1cccc([N+](=O)[O-])c1', 'T/C', '100 % of control'),
  ('Cc1c([N+](=O)[O-])cc(C(C)(C)C)c(O)c1[N+](=O)[O-]', 'T/C', '95 % of control'),
  ('CC(=O)c1cc(I)c(O)c2ncccc12', 'T/C', '91 % of control'),
  ('C#CC(=O)C(CC)CCCC (stereo not given)', 'T/C', '115 % of control'),
  ('CC(=O)c1c(O)c(Br)c(C)oc1=O (tested in a mixture with another compound)', 'T/C', '89 % of control');
